Target System: UniProt:P11597
Sequence (P11597 whole entry): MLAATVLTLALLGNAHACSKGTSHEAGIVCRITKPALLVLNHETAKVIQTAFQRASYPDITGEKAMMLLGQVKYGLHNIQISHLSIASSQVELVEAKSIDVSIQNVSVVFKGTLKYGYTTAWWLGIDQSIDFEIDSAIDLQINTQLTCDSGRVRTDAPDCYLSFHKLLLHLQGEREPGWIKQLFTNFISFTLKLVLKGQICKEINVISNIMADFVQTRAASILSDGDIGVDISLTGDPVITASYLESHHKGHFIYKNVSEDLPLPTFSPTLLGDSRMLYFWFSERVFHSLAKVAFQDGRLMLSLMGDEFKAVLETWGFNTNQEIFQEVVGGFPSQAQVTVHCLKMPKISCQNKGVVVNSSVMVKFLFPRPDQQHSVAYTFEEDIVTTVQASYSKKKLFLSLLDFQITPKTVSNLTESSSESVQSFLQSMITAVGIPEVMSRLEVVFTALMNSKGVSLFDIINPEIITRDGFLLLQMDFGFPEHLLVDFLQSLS
Test Description: Inhibition of human recombinant CETP-mediated [3H]cholesteryl ester transfer from HDL to biotinylated LDL by scintillation proximity assay
Listing of recorded pIC50 by entry.
// pIC50: -log10(molar conc.)

Answered examples (3):
>  <Molecule>
CC(C)(C)CC(=O)OC(Cc1ccccc1)(c1cccc(C(F)(F)F)c1)c1ccc(Cl)cn1 (racemic)

>  <Target System>
UniProt:P11597

>  <pIC50>
5.89

$$$$
>  <Molecule>
O=C(NC1CCCC1)NC(Cc1ccccc1)(c1cccc(C(F)(F)F)c1)c1ccccn1 (centres undefined)

>  <Target System>
UniProt:P11597

>  <pIC50>
6.15

$$$$
>  <Molecule>
Cc1nc(C[C@](NC(=O)NC2CCCC2)(c2cc(F)cc(C(F)(F)F)c2)c2ccc(Cl)cn2)no1

>  <Target System>
UniProt:P11597

>  <pIC50>
5.97

$$$$

Now examine the next entry.
## Task Value lookup for pIC50; key = "Cc1csc(C[C@](NC(=O)NC2CCCC2)(c2cc(F)cc(C(F)(F)F)c2)c2ccc(Cl)cn2)n1"
## Result 5.96
